target: UniProtKB Q72874
pIC50: −log10 of the molar value.
measured_attribute: pIC50

| compound | measured_attribute | modifier_sign | result_number |
| --- | --- | --- | --- |
| CC(C)(C)NC(=O)[C@@H]1C[C@@H]2CCCC[C@@H]2CN1CC(O)C[C@@H](Cc1ccccc1)C(=O)N[C@H]1CCCC[C@@H]1NC(=O)c1cc2ccccc2cn1 (stereo partly specified) | pIC50 | = | 7.15 |
| CC[C@H](C)[C@H](NC(=O)[C@H](Cc1ccccc1)CC(O)(CO)CN(CC(=O)NC(C)(C)C)CC1CCCCC1)C(=O)NCc1nc2ccccc2[nH]1 (stereo partly specified) | pIC50 | = | 6.85 |
| CC[C@H](C)[C@H](NC(=O)[C@H](CC(C)C)CC(O)CN1C[C@H]2CCCC[C@H]2C[C@H]1C(=O)NC(C)(C)C)C(=O)NCc1nc2ccccc2[nH]1 (stereo partly specified) | pIC50 | = | 7.52 |
| CC[C@H](C)[C@H](NC(=O)[C@H](Cc1ccccc1)C[C@@H](O)CN1C[C@H]2CCCC[C@H]2C[C@H]1C(=O)NC(C)(C)C)C(=O)NCc1nc2ccccc2[nH]1 | pIC50 | = | 7.52 |
| CC[C@H](C)[C@H](NC(=O)[C@H](Cc1ccccc1)CC(O)CN1C[C@H]2CCCC[C@H]2C[C@H]1C(=O)NC(C)(C)C)C(=O)NCCc1nc2ccccc2[nH]1 (stereo partly specified) | pIC50 | = | 6.89 |
| CN(CC(O)C[C@@H](Cc1ccccc1)C(=O)N[C@H]1CCCC[C@@H]1NC(=O)c1ccc2ccccc2n1)[C@@H](CC1CCCCC1)C(=O)NC(C)(C)C (stereo partly specified) | pIC50 | < | 5.85 |
